# Assay notes: Solubility testing in water, SGF, FaSSIF, FeSSIF at 37° C.
# Assay type: physicochemical
# Condition info: pH of sample in SGF (pH of media 1.2), 2 h
# Method: About 15 mg of sample was weighed into each sample vial and then 3.0 mL of water, simulated gastric fluid (SGF), Fasted State Simulated Intestinal Fluid (FaSSIF) or Fed State Simulated Intestinal Fluid (FeSSIF) media was added. Samples were prepared in triplicate for each media. The suspensions were kept shaking at 37° C. for up to 24 h. At 0.5, 2 and 24 h, suspensions were filtered and the filtrate was analyzed by HPLC.
Counter-ions that a name gives are not always drawn.
Measure: pH
Give the value as a plain number.

Exercise: Requested field: pH. Item: NCc1ccc(C(=O)Nc2ccncc2F)cc1-c1cccc(C(=O)Nc2ccc(SC[C@H]3CCOC3=O)cc2)c1 [HCl salt Form II]
Solution: 1.4

Exercise: Look up pH for this compound: NCc1ccc(C(=O)Nc2ccncc2F)cc1-c1cccc(C(=O)Nc2ccc(SC[C@H]3CCOC3=O)cc2)c1 [Freebase Form I]
Solution: 1.4

Exercise: Fill in: pH of NCc1ccc(C(=O)Nc2ccncc2F)cc1-c1cccc(C(=O)Nc2ccc(SC[C@H]3CCOC3=O)cc2)c1 [Succinate Form I] is ___
Solution: 1.4

Exercise: What value of pH has been recorded for this entry: NCc1ccc(C(=O)Nc2ccncc2F)cc1-c1cccc(C(=O)Nc2ccc(SC[C@H]3CCOC3=O)cc2)c1 (stereo in doubt) [HCl salt Form I]
Solution: 1.4

* * *

# Assay notes: Solubility testing in water, SGF, FaSSIF, FeSSIF at 37° C.
# Assay type: physicochemical
# Condition info: FaSSIF (pH of media 6.5), 37° C., 2 h
Where a name gives a salt, the structure may show the parent alone.
Measure: Solubility

Exercise: Look up Solubility: NCc1ccc(C(=O)Nc2ccncc2F)cc1-c1cccc(C(=O)Nc2ccc(SC[C@H]3CCOC3=O)cc2)c1 [Succinate Form I]
Solution: 2 µg/mL

Exercise: What value of Solubility has been reported for the following molecule? NCc1ccc(C(=O)Nc2ccncc2F)cc1-c1cccc(C(=O)Nc2ccc(SC[C@H]3CCOC3=O)cc2)c1 (stereo in doubt) [HCl salt Form I]
Solution: 5 µg/mL

Exercise: Fill in: Solubility of NCc1ccc(C(=O)Nc2ccncc2F)cc1-c1cccc(C(=O)Nc2ccc(SC[C@H]3CCOC3=O)cc2)c1 [HCl salt Form II] is ___
Solution: 23 µg/mL

Exercise: Any idea what its Solubility is? The molecule is NCc1ccc(C(=O)Nc2ccncc2F)cc1-c1cccc(C(=O)Nc2ccc(SC[C@H]3CCOC3=O)cc2)c1 [Freebase Form I]
Solution: 6 µg/mL

* * *

# Assay notes: Solubility testing in water, SGF, FaSSIF, FeSSIF at 37° C.
# Format: physicochemical
# Condition info: SGF (pH of media 1.2), 37° C., 2 h
Where a name gives a salt, the structure may show the parent alone.
Measure: Solubility (µg/mL)
Express your answer in µg/mL, writing the number without its unit.

Exercise: // lookup Solubility for NCc1ccc(C(=O)Nc2ccncc2F)cc1-c1cccc(C(=O)Nc2ccc(SC[C@H]3CCOC3=O)cc2)c1 [HCl salt Form II]
Solution: 2591

Exercise: I have this compound here, NCc1ccc(C(=O)Nc2ccncc2F)cc1-c1cccc(C(=O)Nc2ccc(SC[C@H]3CCOC3=O)cc2)c1 [Succinate Form I] , and I need its recorded Solubility.
Solution: 3826

Exercise: Given the entry NCc1ccc(C(=O)Nc2ccncc2F)cc1-c1cccc(C(=O)Nc2ccc(SC[C@H]3CCOC3=O)cc2)c1 (stereo in doubt) [HCl salt Form I] , report its measured Solubility.
Solution: 841

The measured values listed here are drawn from patent US20260078108A1.
